assayed_system: HIV protease (Human immunodeficiency virus type 1 group M subtype B, UniProt P04585)
Construct: HIV protease is diluted in the assay buffer to a final enzyme concentration of 12.3 nanomolar, based on a molecular weight of 10,780
measurement_description: HIV protease enzyme assay (fluorescence, substrate 2-Ile-Nle-Phe(p-NO2)-Gln-ArgNH2)
Format: biochemical
condition_set: Table 21; HIV protease enzyme assay; read-out: IC50
Would you kindly list pIC50 for each of these compounds?
Please note pIC50 is a logarithmic value: minus log10 of concentration in mol/L. Answer with that number alone.

Which measured pIC50 belongs to CC(C)CN(C[C@@H](O)[C@H](Cc1ccccc1)NC(=O)OCc1ccc(N)nc1)S(=O)(=O)c1ccc(O)cc1 , tested on HIV protease (Human immunodeficiency virus type 1 group M subtype B, UniProt P04585)?
8.52

// next record COc1ccc(S(=O)(=O)N(CC(C)C)C[C@@H](O)[C@H](Cc2ccccc2)NC(=O)OCc2cncs2)cc1
8.40

// next record Cc1c(N)cccc1C(=O)N[C@@H](Cc1ccccc1)[C@H](O)CN(CC(C)C)S(=O)(=O)c1ccc2c(c1)OCO2
8.30

// next record CC(C)CN(C[C@@H](O)[C@H](Cc1ccccc1)NC(=O)OCc1cccnc1)S(=O)(=O)c1ccc([N+](=O)[O-])cc1
8.10

// next record CC(C)CN(C[C@@H](O)[C@H](Cc1ccccc1)NC(=O)OCc1cncs1)S(=O)(=O)c1ccc(O)cc1
8.40
